Entry source: PubChem BioAssay (NCI)

Recorded growth values for a group of molecules are listed next.
# Tested on: NCI-H522 lung
# test-protocol: NCI-60 one-dose screen, 48 h (100 = growth as untreated, 0 = no growth, -100 = all killed)
# measurement-conditions: 10 µM unless noted
Compounds without any hit were thinned out: in the full panel of roughly 83,000, 20% have a hit. The source made the active and inactive calls. The calls were made as follows: active = growth percent below 10; inactive = the rest.
reported-metric: growth

- O=C1Nc2ccc(Br)cc2/C1=N\c1nnc(-c2ccc(Cl)cc2)o1: 59.8% (inactive)
- C(=C(\C1=NCCN1)n1cnc2ccccc21)/c1ccc2ccccc2c1: 14.7% (inactive)
- O=C1CC2(CCOCC2)Oc2ncccc21: -49.2% (active)
- CCC(CC)n1c(=O)c(SC2=NC3C(NN2)N(CC)C(=O)N3CC)c(C(=O)O)c2ccccc21 (stereo not given): -45% (active)
- COc1ccc2c(c1)c(-c1nn3c(=O)cc(-c4ccccc4)nc3s1)cn2C: -34% (active)
- Cc1ccc(-c2nnc3sc(C4=Cc5ccccc5OC=C4)nn23)cc1: 91% (inactive)
- C/C(Cc1ccc(Cl)cc1)=C(/c1ccccc1)c1ccc(OCCN)cc1: 96.1% (inactive)
- COc1ccc(-c2ccc3c4c(cccc24)C(=O)N(N2C(=O)c4cccc5cccc(c45)C2=O)C3=O)cc1: 97.1% (inactive)
- O=S(=O)(NCCCNc1nccc(-n2cnc3ccccc32)n1)c1ccc(F)cc1: 68.5% (inactive)
- C=CCn1c(SCC(=O)Nc2ccc(OC)cc2)nnc1-c1ccc(Cl)cc1: 83.4% (inactive)

----------
Reported growth by item:
# Tested on: NCI-H522 lung
# test-protocol: NCI-60 one-dose screen, 48 h (100 = growth as untreated, 0 = no growth, -100 = all killed)
# measurement-conditions: 10 µM unless noted
This is part of a sample that, as a whole, favours compounds with a hit. Of some 83,000 tested, about 20% had one in any assay. Active and inactive are the calls of the source. Rule for the calls: active = growth percent below 10; inactive = the rest.
reported-metric: growth

* O=C1c2c(c3c4cc(Br)ccc4[nH]c3c3ccc4ccccc4c23)C(=O)N1CCN1CCCCC1 | 68% (inactive)
* O=C(CSc1nnc(-c2ccc(Cl)cc2)n1-c1ccccc1)Nc1ccc(F)cc1 | 71.8% (inactive)
* Oc1ccc(CSc2nnc(-c3ccc(Br)cc3)n2-c2ccccc2)c2cccnc12 | 28.5% (inactive)
* COC(=O)c1nc(-c2ccc(C)cc2)oc1S(=O)(=O)N1CCN(c2oc(-c3ccccc3)nc2C#N)CC1 | 92.2% (inactive)
* CC(=O)NC(C)(C)C(=O)N1CCC[C@H]1C(=O)NC(C)(C)C(=O)N[C@@H](C)C(=O)NC(C)(C)C(=O)N[C@@H](C)C(=O)N[C@@H](CCC(N)=O)C(=O)NC(C)(C)C(=O)N[C@H](C(=O)NC(C)(C)C(=O)NCC(=O)N[C@@H](CC(C)C)C(=O)NC(C)(C)C(=O)N1CCC[C@H]1C(=O)N[C@H](C(=O)NC(C)(C)C(=O)NC(C)(C)C(=O)N[C@@H](CCC(N)=O)C(=O)N[C@@H](CCC(N)=O)C(=O)N[C@H](CO)Cc1ccccc1)C(C)C)C(C)C | 48% [4.25 µM] (inactive)
* CN1CCN(c2nc(-c3csc(-c4ccncc4)n3)cc3ccccc23)CC1 | 55.7% (inactive)

----------
# Test system: SK-OV-3 ovarian
# test-protocol: NCI-60 one-dose screen, 48 h (100 = growth as untreated, 0 = no growth, -100 = all killed)
# measurement-conditions: 10 µM unless noted
Compounds without any hit were thinned out: in the full panel of roughly 83,000, 20% have a hit.
The following molecules are shown together with reported growth values.
reported-metric: growth (%)

* NS(=O)(=O)Oc1ccc2nc(Nc3ccc(F)c(F)c3)ccc2c1 | 111
* CN1CCN(Cc2ccc(NC(=O)c3cncc(C#Cc4cnc5ccc(O[C@H]6CCOC6)nn45)c3)cc2C(F)(F)F)CC1 | -26
* CCC(CC)N1C(=O)/C(=c2\sc3n(c2=O)C2C(NN=3)N(CC)C(=O)N2CC)c2ccccc21 (stereo unspecified) | 42.6
* ClC(Cl)c1nc(-c2cccs2)n2nc(-c3ccccc3)cc2n1 | 20.2
* O=C(/C=C1\C=CN(CCCCCCF)c2ccccc21)n1ccc2ccccc21 | 98.8
* CC(C)C[C@H]1C(=O)O[C@H](C(C)C)C(=O)N(C)[C@@H](C(C)C)C(=O)O[C@H](C(C)C)C(=O)N(C)[C@@H](C(C)C)C(=O)O[C@H](C(C)C)C(=O)N1C | -9.29
* CCCCCCNC(=O)Oc1ccc(/C(=C(/C)c2ccc(OC)cc2)c2ccc(OCCN3CCCC3)cc2)cc1 | 97.9
* CC(=O)Nc1ccc(NC(=O)Nc2cccc(-c3nc(-c4ccc(NC(=O)c5cccs5)cc4Cl)no3)c2)cc1C(F)(F)F | -66
* Cc1nn(-c2ccc(Br)cc2)c2nc(CCl)[nH]c(=O)c12 | 106
* COC[C@]12CC[C@@H](C)[C@H](C)[C@H]1C1=CC[C@@H]3[C@@]4(C)CCCNC(C)(C)[C@@H]4CC[C@@]3(C)[C@]1(C)CC2 | 85.4
* CC(C)=CCc1c2c(c(O)c3c1O[C@]14C(=C[C@@H]5C[C@H]1C(C)(C)O[C@@]4(C/C=C(/C)C(=O)O)C5=O)C3=O)CC(O)C(C)(C)O2 (stereo partly specified) | 30.4
* C#C[C@]1(O)CC[C@H]2[C@@H]3CC=C4c5sc(-c6ccc(OC)cc6)nc5CC[C@]4(C)[C@H]3CC[C@@]21C | 53.8
* CCOc1c(C#N)c(Nc2ccc(S(N)(=O)=O)cc2)c(C#N)c2nnc(C)n12 | 102
* C[C@H]1[C@H](C)CC[C@]2(COC(=O)c3cccnc3)CC[C@]3(C)C(=CC[C@@H]4[C@@]5(C)CCCNC(C)(C)[C@@H]5CC[C@]43C)[C@H]12 | 92.5
* N#C/C(=C\c1ccc(N2CCCCC2)cc1)C(=O)Nc1sc2c(c1C#N)CCC2 | 96.6
* Brc1cccc(/C=N/Nc2nc(N/N=C/c3cccc(Br)c3)nc(N3CCOCC3)n2)c1 | 92.9

----------
# Test system: EKVX NSCLC
# test-protocol: NCI-60 one-dose screen, 48 h
# measurement-conditions: 10 µM unless noted
About 83,000 compounds went through this panel and 20% of them were active in at least one assay; those are over-represented in the sample as a whole. Activity calls are given as the source filed them. How the source made its calls: active means growth percent below 10; inactive means the rest.
Possible outcomes: active, inactive

• CCOC(=O)c1c(Nc2ccccc2)nn2c(-c3ccc(OC)c(OC)c3)ccnc12 = inactive
• CN1CCN(c2ccc(C(=O)/C=C/c3ccc(Cl)c(C(F)(F)F)c3)cc2)CC1 = inactive
• N#Cc1c(NC(=O)c2ccccc2C(F)(F)F)sc2c1CCC(=O)C2 = inactive
• COc1ccc(-c2nnc(SCc3ccc(O)c4ncccc34)o2)cc1 = inactive
• CCCCCCNC(=O)Oc1ccc(/C(=C(\C)c2ccc(Cl)cc2)c2ccc(OCCN(C)C)cc2)cc1 = inactive
• Cc1ccc(S(=O)(=O)N/N=C/c2cn(-c3ccc(F)cc3)nc2-c2ccc(S(C)(=O)=O)cc2)cc1 = inactive
• COc1ccc(/C=C/C(=O)c2nnn(-c3ccc(Br)cc3)c2C)cc1OC = inactive
• CCCCOc1ccc(S(=O)(=O)N2CCN(c3nccc(N4CCOCC4)n3)CC2)cc1 = inactive
• O=c1c2ccccc2nc(COc2ccccc2)n1/N=C/C=C/c1ccccc1 = inactive
• Oc1ccc(CSc2nnc(-c3ccc(Cl)cc3)o2)c2cccnc12 = inactive
• CCCCCCNC(=O)Oc1ccc(/C(=C(/C)c2ccccc2)c2ccc(OCCN(C)C)cc2)cc1 = inactive
• COc1ccc(NS(=O)(=O)c2ccc(-c3cnc(C4CC4)o3)cc2)cc1Cl = inactive
• Oc1ccc(CSc2nnc(-c3ccc(Br)cc3)n2-c2ccccc2)c2cccnc12 = inactive
• CCc1ccc(NC(=O)N[C@@H](Cc2cc(F)cc(F)c2)C(=O)N[C@@H]2C(=O)N3CCC[C@H]3C(=O)N3CCO[C@H](C)[C@H]3C(=O)N[C@@H](CO)C(=O)N3C[C@H](C)C[C@H]3C(=O)O[C@H]2C)c(F)c1 = inactive
• CC1(C)CC[C@]2(C(=O)N3CCCNCC3)CC[C@]3(C)C(=CC[C@@H]4[C@@]5(C)CCC(=O)C(C)(C)[C@@H]5CC[C@]43C)[C@H]2C1 = inactive
• C/C=C/C=C1\C[C@H]2CO[C@H](O2)C1=O = inactive
• O=c1c2c(O)cccc2oc2c3c(cc(O)c12)O[C@H]1OC=C[C@@H]31 = inactive
• COc1cc(/C=C2\SC(=O)NC2=O)ccc1OCC(=O)Nc1ccc(C(=O)/C=C/c2cc3ccccc3nc2Cl)cc1 = inactive
• O=C(COc1ccc(C2SCC(=O)N2c2ccc(F)cc2)cc1)c1ccccc1 (configuration not stated) = inactive
• O=C(NNc1nc2cc(F)c(F)cc2n2cccc12)c1ccncn1 = inactive
• COc1cc(O)c2c(c1)/C=C/C[C@H](O)[C@H](O)C(=O)/C=C\C[C@H](C)OC2=O = inactive
• Cc1nn(-c2ccc(Cl)cc2)c(C)c1N=Nc1ccc2oc(=O)ccc2c1 = inactive
• O=S(=O)(Nc1ccc(-n2cnc3cc(-c4ccc(O)cc4)ccc32)cc1)C1CC1 = inactive
• CS(=O)(=O)c1ccc2c(c1)c1c(n2C(=O)c2ccc(Cl)cc2)CCCC1 = inactive
• O=c1oc2ccc(-c3ccc(F)cc3F)cc2c(=O)n1-c1cccc(C(F)(F)F)c1 = active
• O=C(CCCCCCN1CC(=O)N2[C@@H](c3cccc(Cl)c3)c3[nH]c4ccccc4c3C[C@H]2C1=O)NO = inactive
• COc1ccc(/C=N/Nc2nc(Nc3ccccc3)nc(Nc3ccc(S(N)(=O)=O)cc3)n2)cc1 = inactive
• N=c1c2cc(-c3ccccc3)oc2ncn1/N=C/c1ccccc1 = inactive
• CCOC(=O)C1=C(C)Nc2nc3ccccc3n2C1c1cccc(Br)c1 (configuration not stated) = inactive
• COc1ccc(S(=O)(=O)NCCCNc2nccc(-n3cnc4ccccc43)n2)cc1 = inactive
• CC(=O)Nc1nc2c(s1)C1=CC[C@H]3[C@@H]4CC[C@H](C(C)=O)[C@@]4(C)CC[C@@H]3[C@@]1(C)CC2 = inactive
• CCN1C(=O)N(CC)C2SC(N/N=C/C=C/c3ccccc3OC)=NC21 (configuration not stated) = inactive
• C=C(C)[C@@H]1CC[C@]2(C)[C@H](CC=C3[C@@H]4CC(C)(C)CC[C@]4(C(=O)NCC#CCN4CCN(C)CC4)CC[C@]32C)[C@@]1(C)CCC#N = inactive
• CC(C)(C)n1nnnc1C(Nc1nccs1)c1cc2cccc3ccc4cccc1c4c32 (configuration not stated) = inactive
• CCCCCCNC(=O)Oc1ccc(/C(=C(\C)c2ccc(OC)cc2)c2ccc(OCCN(C)C)cc2)cc1 = inactive
• COc1cc(C(=O)C[n+]2ccc3ccccc3c2)cc(OC)c1OC = inactive
• O=C(/C=C/Nc1ccc(S(=O)(=O)O)cc1)c1ccc(F)cc1 = inactive
